The origin of these recorded values is patent US12653887B2.

# Tested on: CD8+ T cells
# measurement protocol: RNA nucleofection of differently prepared PBMCs, multimer assay
# Assay type: cell-based, human
# condition label: Donor 2; starting material CD14-CD25- (Frozen); immunogen RNA (25 mer epitopes)
measured property: Hit Rate (%)

>>> readout_value("ME-1: previously identified neoantigen (PIN) short peptide; also encoded in RNA (FLDEFMEGV)")
0
>>> readout_value("Gli3: Gli3 epitope encoded in the RNA (25 mer epitopes) construct (RLIPGIPTV)")
67
>>> readout_value("ACTN4: previously identified neoantigen (PIN) short peptide; also encoded in RNA (FIASNGVKLV)")
0
>>> readout_value("CDK4: CDK4 epitope encoded in the RNA (25 mer epitopes) construct (ACDPHSGHFV)")
0
